- MEASURED TARGET: p97/VCP (Homo sapiens)
- Sequence (P55072 2-806): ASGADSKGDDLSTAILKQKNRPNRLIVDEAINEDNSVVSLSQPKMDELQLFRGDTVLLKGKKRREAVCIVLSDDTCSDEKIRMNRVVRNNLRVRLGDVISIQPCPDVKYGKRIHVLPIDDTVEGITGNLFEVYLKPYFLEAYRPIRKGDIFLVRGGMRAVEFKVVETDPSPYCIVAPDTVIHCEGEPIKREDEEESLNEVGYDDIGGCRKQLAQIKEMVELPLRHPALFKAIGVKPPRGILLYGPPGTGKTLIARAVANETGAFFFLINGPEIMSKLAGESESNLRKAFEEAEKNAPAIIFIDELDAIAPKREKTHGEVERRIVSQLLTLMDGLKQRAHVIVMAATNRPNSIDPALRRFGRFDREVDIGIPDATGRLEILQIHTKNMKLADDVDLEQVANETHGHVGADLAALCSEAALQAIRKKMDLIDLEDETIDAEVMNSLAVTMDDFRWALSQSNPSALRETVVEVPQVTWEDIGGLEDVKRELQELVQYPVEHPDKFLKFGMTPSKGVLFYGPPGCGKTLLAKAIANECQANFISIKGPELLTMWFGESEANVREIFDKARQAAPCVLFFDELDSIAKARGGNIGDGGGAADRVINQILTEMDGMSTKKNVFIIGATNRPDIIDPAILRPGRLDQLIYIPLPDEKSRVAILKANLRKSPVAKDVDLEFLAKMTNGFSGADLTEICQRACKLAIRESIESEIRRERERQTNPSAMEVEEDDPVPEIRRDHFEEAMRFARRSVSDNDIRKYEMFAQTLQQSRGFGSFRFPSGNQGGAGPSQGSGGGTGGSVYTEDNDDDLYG
- ASSAY PROCEDURE: ATPase assay on purified human p97/VCP
RECORDED METRIC: IC50 (µM)
Quick note: give the figure in µM, leave out the unit.

Data request: Which IC50 reading was recorded for the compound NCCc1cn(-c2nc(NCc3ccccc3)c3ccccc3n2)c2ccccc12 ?
Data returned: 0.9
